Catalogue of IC50 readings, one per entry.
- Tested on: HTT
- procedure.details: HiBiT protein abundance assay, HTT HiBiT K562 cell line
- Assay type: cell-based, human
- condition.context: HiBiT K562 cell line, 24 hours, top dose 10 μM; read-out: Effect on protein abundance, HTT (IC50 category)

Tell me reported IC50 for Cc1cn2nc(-c3cc(F)c4c(=O)n(C5CCNCC5)ccc4c3)cc(C)c2n1 , tested with HTT.
< 100 nM

Tell me reported IC50 for Cc1cn2nc(-c3cc(F)c4c(=O)n(C5CCNCC5)cnc4c3)cc(C#N)c2n1 , tested with HTT.
< 100 nM

Tell me reported IC50 for Cc1cn2cc(-c3ccc4c(=O)n(C5CCNCC5)ncc4c3)c(C)cc2n1 , tested with HTT.
1000 to 10000 nM

Tell me reported IC50 for Cn1cc2cc(-c3ncc4c(=O)n(C5CCNCC5)ccc4n3)c(O)c(F)c2n1 , tested with HTT.
< 100 nM

Tell me reported IC50 for Cc1cn2nc(-c3ccc4c(=O)n(C5CCNCC5)ncc4c3)nc2c(C)n1 , tested with HTT.
100 to 1000 nM

Tell me reported IC50 for Cc1cn2nc(-c3cc(F)c4c(=O)n(C5CCNC6(CC6)C5)ncc4c3)cc(C)c2n1 (stereo not shown) , tested with HTT.
< 100 nM

Tell me reported IC50 for Cc1cc(-c2cc(F)c3c(=O)n(C4CCNC5(CC5)C4)ccc3c2)nc2cn(C)nc12 (stereo not shown) , tested with HTT.
< 100 nM

* * *

Catalogue of GI50 readings, one per entry.
- Test system: K562 (human chronic myelogenous leukemia) cells
- procedure.details: Cell Titer Glo 2.0 cell viability assay
- Format: cell-based
- condition.context: Homo sapiens, K562, 72 h, K562 cells, 72 hours, Cell Titer Glo 2.0; read-out: K562 GI50

Guide cases for GI50, answers given:
[[record]]
molecule = "Cc1cc(-c2cc3ccn(C4CCN(C)CC4)c(=O)c3cn2)cc2cn(C)nc12"
target = "K562 (human chronic myelogenous leukemia) cells"
reading = "1000 to 10000 nM"

[[record]]
molecule = "Cc1cn2nc(-c3ccc4c(=O)n(C5CCNCC5)ccc4c3)cc(C(=O)O)c2n1"
target = "K562 (human chronic myelogenous leukemia) cells"
reading = "1000 to 10000 nM"

[[record]]
molecule = "CCN1CCC(n2ncc3cc(-c4cc(C)c5nc(C)cn5n4)ccc3c2=O)CC1"
target = "K562 (human chronic myelogenous leukemia) cells"
reading = "100 to 1000 nM"

[[record]]
molecule = "Cc1cn2cc(-c3ccc4c(=O)n([C@H]5CCNC5)cc(C)c4c3)cc(C#N)c2n1"
target = "K562 (human chronic myelogenous leukemia) cells"
reading = "> 10000 nM"

[[record]]
molecule = "CC(=O)Nc1cc(-c2cc(C)c3nc(C)cn3n2)cc2ccn([C@H]3CCNC3)c(=O)c12"
target = "K562 (human chronic myelogenous leukemia) cells"
reading = "1000 to 10000 nM"

[[record]]
molecule = "CN(c1ccc2ncn(-c3cc(F)c4nn(C)cc4c3)c(=O)c2c1)C1CCNCC1"
target = "K562 (human chronic myelogenous leukemia) cells"
reading = "> 10000 nM"


Would you mind telling me what GI50 value was observed for Cc1cn2cc(-c3ccc4c(=O)n(C5CCNCC5)ccc4c3)cc(F)c2n1 ?
< 100 nM

Would you mind telling me what GI50 value was observed for Cc1cn2nc(-c3ccc4c(c3)CCN(C3CCNCC3)C4=O)cc2c(C)n1 ?
1000 to 10000 nM

Would you mind telling me what GI50 value was observed for Cc1c(O)c(-c2ccc3c(=O)n(C45CCC(N)(CC4)C5)ccc3n2)cc2cn(C)nc12 ?
< 100 nM

Would you mind telling me what GI50 value was observed for Cc1cn2nc(-c3ccc4c(=O)n([C@H]5CCNC6(CC6)C5)ncc4c3)cc(C)c2n1 ?
1000 to 10000 nM

Would you mind telling me what GI50 value was observed for Cc1cn2nc(-c3ccc4c(=O)n([C@H]5CCN(C)C6(CC6)C5)ncc4n3)cc(C)c2n1 ?
100 to 1000 nM
